assay: reduced viability of SK-BR-3 breast cancer cells – cell-based, 24 h, human, pilot screen (AID 572); details: SK-BR-3 viability, CellTiter-Glo luminescence, at 10 µM, hits give low values;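 note: compound exposure lasted between 18 and 24 h rather than exactly 24 h; 100% = carrier-treated control wells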
ATTRIBUTE MEASURED: viability (%)
API: value field is a number in %; no unit string.

Worked examples, 5 compounds total:
Nc1cc(N)cc(-c2nc3ccccc3o2)c1 | 100
COc1cccc(-c2nnc(NC(C)=O)o2)c1 | 93.5
C=CCSc1nc(N)c2c(C)c(C)sc2n1 | 98.5
Cc1ccc(C2c3c(oc4ccccc4c3=O)C(=O)N2c2nnc(C(C)C)s2)o1 (stereo not drawn) | 84
O=C1C2C3C=CC(C3)C2C(=O)N1c1cccc(N2C(=O)C3C4C=CC(C4)C3C2=O)n1 (stereo not drawn) | 91

// lookup viability for `Cc1cc(NS(=O)(=O)c2ccc(NC(=O)COc3ccccc3C(C)C)cc2)no1`
98

// lookup viability for Cc1ccc2c(c1)-c1c(cnn1CC(=O)NC(C)CCc1ccco1)CO2 (stereo not drawn)
85.5

// lookup viability for CCOC(=O)N1CCC(NC(=O)C2CCCN(C(=O)c3cc4sccc4n3C)C2)CC1 (stereo not drawn)
113

// lookup viability for `Cc1nnc(SCC(=O)Nc2sc3c(c2C#N)CCCC3)[nH]c1=O`
95.5

// lookup viability for CCOc1ccccc1NC(=O)CC1Nc2cc(C)c(C)cc2NC1=O (stereo not drawn)
80.5

// lookup viability for `CC(=O)NCCc1nc2ccccc2[nH]1`
94

// lookup viability for `c1nc(NCC2(N3CCOCC3)CCCCC2)c2ccsc2n1`
82.5

* * *

test: S. cerevisiae growth inhibition in permissive medium (OD615), pilot counter-assay for S. cerevisiae lifespan shortening project, permissive growth control (AID 705); details: OD615, 24 h, at 10 µM, hits give high values
The following compounds are shown together with reported growth inhibition values.
API: value field is a number in %; no unit string.

Worked examples, 8 compounds total:
CCN1C(=O)C(O)(CC(=O)c2ccc3c(c2)OCCO3)c2ccccc21 (configuration not stated) | -0.735
CC(=O)C1C(c2ccc(Cl)cc2)NC(=O)NC1(O)C(F)(F)F (configuration not stated) | -9.25
COc1ccc(S(=O)(=O)N2CCCN(S(=O)(=O)c3ccc(OC)cc3C)CC2)c(C)c1 | -12.6
Cc1nnc(SCC(=O)Nc2ccc3c4c(cccc24)CC3)n1C | -0.36
Cc1cc(C)nc(NS(=O)(=O)c2ccc(Br)s2)c1 | -1.63
COc1cccc2cc(C(=O)N3CCC(C)CC3)c(=O)oc12 | -2.37
O=C(c1cnc2n(c1=O)CCS2)N(C1CCCCC1)C1CCCCC1 | 2.67
COc1ccc(NS(=O)(=O)c2ccc(NC(C)=O)cc2)cc1OC | 0.65

// lookup growth inhibition for O=C(CC1Oc2ccccc2NC1=O)NCCc1ccccc1 (configuration not stated)
-0.525

// lookup growth inhibition for O=C(O)C1CCCN(S(=O)(=O)c2ccc(Cl)s2)C1 (configuration not stated)
-4.79

// lookup growth inhibition for `O=C(CCCn1c(=O)c2sccc2n(Cc2cc(=O)n3ccccc3n2)c1=O)NCc1ccco1`
-9.24

// lookup growth inhibition for `O=C(Nc1ccncc1)c1ccccc1F`
-0.355

// lookup growth inhibition for `CCOC(=O)Nc1ccc(S(=O)(=O)Nn2cnnc2)cc1`
-14.5

// lookup growth inhibition for CC1Cc2nc(SCC(=O)Nc3ccc4c(c3)OCO4)n(-c3ccc(F)cc3)c(=O)c2S1 (configuration not stated)
-7.17

// lookup growth inhibition for CC(CCc1ccccc1)NC(=O)C1CCCN(c2nnc(-n3cccc3)s2)C1 (configuration not stated)
-16.5

// lookup growth inhibition for `Cc1ccc(C(=O)Nc2c(C(=O)N3CCOCC3)cnn2-c2ccccc2)cc1`
-7.86

// lookup growth inhibition for `O=C(CSc1nc(-c2ccco2)cc(C(F)(F)F)n1)NCCCn1ccnc1`
-8.51

// lookup growth inhibition for `COc1ccc(N(CC(=O)Nc2cccc(SC)c2)S(C)(=O)=O)cc1Cl`
-4.88

// lookup growth inhibition for `CCCCn1c2c(c3ccccc31)CCc1nonc1-2`
-8.86

// lookup growth inhibition for `CCOc1cccc(OCCCCn2ccnc2)c1`
-3.35

// lookup growth inhibition for `COc1ccc(OCCOC(=O)Nc2ccccc2)cc1`
-13.2

// lookup growth inhibition for `COc1ccc(CCn2c(N)c(S(=O)(=O)c3cccs3)c3nc4ccccc4nc32)cc1OC`
-4.55

// lookup growth inhibition for O=C(NCCN1C(=O)C2C3C=CC(C3)C2C1=O)N1CCCCC1 (configuration not stated)
-11.7

// lookup growth inhibition for COc1ccc(OC)c(C2=NOC(C(=O)Nc3cc(C)nn3-c3ccccc3)C2)c1 (configuration not stated)
-7.35

// lookup growth inhibition for CC(CCC(=O)Nc1nncs1)C(=O)O (configuration not stated)
-8.12

// lookup growth inhibition for `N#CCCN1CCN(S(=O)(=O)c2ccc(S(=O)(=O)NC3CCCC3)cc2)CC1`
-9.39

// lookup growth inhibition for `CSc1nnc(NC(=O)c2cc3ccccc3oc2=O)s1`
-6.82

// lookup growth inhibition for CC(=O)N(c1ccc(Br)cc1)C1C=CS(=O)(=O)C1 (configuration not stated)
-6.33

// lookup growth inhibition for CC(C(=O)N1CC2(C)CC1CC(C)(C)C2)N1C(=O)c2ccccc2C1=O (configuration not stated)
-13.3
